Value source: paper PMC9482650

Biological target: T1, NHERF3_1, Q5T2W1
T1 sequence (Q5T2W1 4-100, limits assumed, looked up): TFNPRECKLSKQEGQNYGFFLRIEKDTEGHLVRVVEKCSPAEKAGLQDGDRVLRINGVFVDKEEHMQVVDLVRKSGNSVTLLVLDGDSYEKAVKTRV
Experiment: holdup assay
Set-up: key: below the threshold = too weak to quantify, mostly under pKd 3.1 to 4
Conditions: plain residues with an end cap or a label only (N-terminal biotin on a linker: ado-ado)
Provide the reported pKd of each item.
Give bare numbers.

NLSIEKETKL [ASNSD1, Q9NWL6]: 6.04
SKENVQETQI [LRRC4B, Q9NT99]: 5.07
EKKTLIGIKL [GOT1L1, Q8NHS2]: 4.78
HLRARKSEWV [GJD4, Q96KN9]: 4.08

The reported pKd of the binder PKRSFIESNV [TANC1, Q9C0D5] was 4.3
